# EXPERIMENT: activity coefficient (dimensionless); of the first substance listed, at infinite dilution; xn = mol fraction of the nth substance listed
# CONDITION_NOTES: 343.15 K; 101 kPa; Liquid; Chromatography; x1 = 0
OUTCOME_MEASURE: activity coefficient
Give only the figure.

Enquiry: Report measured activity coefficient; entry is CCC(=O)CC [pentan-3-one] + CC1(C)[C@@H]2CC[C@@]1(CS(=O)(=O)[O-])C(=O)C2.CCCCCCCCCCCCCC[N+](CCCCCC)(CCCCCC)CCCCCC
Return: 1.03

Enquiry: Report measured activity coefficient; entry is c1ccncc1 [pyridine] + CC1(C)[C@@H]2CC[C@@]1(CS(=O)(=O)[O-])C(=O)C2.CCCCCCCCCCCCCC[N+](CCCCCC)(CCCCCC)CCCCCC
Return: 0.68

Enquiry: Report measured activity coefficient; entry is CCOCC [diethyl ether] + CC1(C)[C@@H]2CC[C@@]1(CS(=O)(=O)[O-])C(=O)C2.CCCCCCCCCCCCCC[N+](CCCCCC)(CCCCCC)CCCCCC
Return: 1.14

Enquiry: Report measured activity coefficient; entry is C1CCCCC1 [cyclohexane] + CC1(C)[C@@H]2CC[C@@]1(CS(=O)(=O)[O-])C(=O)C2.CCCCCCCCCCCCCC[N+](CCCCCC)(CCCCCC)CCCCCC
Return: 1.24

Enquiry: Report measured activity coefficient; entry is CCN(CC)CC [triethylamine] + CC1(C)[C@@H]2CC[C@@]1(CS(=O)(=O)[O-])C(=O)C2.CCCCCCCCCCCCCC[N+](CCCCCC)(CCCCCC)CCCCCC
Return: 1.55
